System: MRSA ATCC 33591
Experiment: microbe, parasite or virus in culture
Format: cell-based, Staphylococcus aureus
Settings: broth dilution in MHB with 0.002% v/v polysorbate 80, inoculum 10^5-10^6 CFU/mL, 37 °C, 24 h, no visible growth, two independent duplicates; Table 1
Positions of bridges follow the written chain, without caps; N, C: chain ends. Non-standard residues stand in square brackets, D forms with d. Residues, ends and D or L forms follow the SMILES beside them.
property: MIC against MRSA ATCC 33591 (µg/mL)
Response body: numeric value in µg/mL, unit text excluded.

Examples with answers:
1. CC(C)C[C@@H]1NC(=O)[C@@H](CC(C)C)NC(=O)[C@H](C)NC(=O)[C@H](NC(=O)[C@H](CO)NC(=O)[C@@H](CCCCN)NC(=O)[C@@H](CC(C)C)NC(=O)[C@@H](N)Cc2ccccc2)[C@H](C)OC1=O | 32
2. CC(C)C[C@@H]1NC(=O)[C@H](C)NC(=O)[C@H](NC(=O)[C@@H](CO)NC(=O)[C@@H](CCCCN)NC(=O)[C@@H](CC(C)C)NC(=O)[C@H](N)Cc2ccccc2)[C@H](C)OC(=O)[C@H](CC(C)C)NC1=O | 16

Could you please provide reported MIC against MRSA ATCC 33591 for `CC(C)C[C@@H]1NC(=O)[C@@H](CC(C)C)NC(=O)[C@H](C)NC(=O)[C@@H](NC(=O)[C@H](CO)NC(=O)[C@@H](CCCCN)NC(=O)[C@@H](CC(C)C)NC(=O)[C@@H](N)Cc2ccccc2)[C@@H](C)OC1=O` ? Thanks!
8

Could you please provide reported MIC against MRSA ATCC 33591 for CC[C@H](C)[C@@H]1NC(=O)[C@H](CC(C)C)NC(=O)[C@H](C)NC(=O)[C@H](NC(=O)[C@H](CO)NC(=O)[C@@H](CCCCN)NC(=O)[C@@H](CC(C)C)NC(=O)[C@@H](N)Cc2ccccc2)[C@H](C)OC1=O [analogue 10] (H-F[dL][dK]S[dT]ALI; ester 5-C) ? Thanks!
8

Could you please provide reported MIC against MRSA ATCC 33591 for `CC(C)C[C@H](NC(=O)[C@H](N)Cc1ccccc1)C(=O)N[C@@H](CCCCN)C(=O)N[C@H](CO)C(=O)N[C@H]1C(=O)N[C@@H](C)C(=O)N[C@@H](CC(C)C)C(=O)N[C@@H](CC(C)C)C(=O)O[C@H]1C` ? Thanks!
32

----------
Test system: Multidrug-Resistant (MDR) S. aureus
Assay: microbe, parasite or virus in culture
Conditions: Staphylococcus aureus, 24 h, read-out: MIC, Staphylococcus aureus NR 46062
// reported MIC per item
Response body: numeric value in µg/mL, unit text excluded.

1. CN[C@H](CC(C)C)C(=O)N[C@H]1C(=O)N[C@@H](CC(N)=O)C(=O)N[C@H]2C(=O)N[C@H]3C(=O)N[C@H](C(=O)N[C@H](C(=O)O)c4cc(O)cc(O)c4-c4cc3ccc4O)[C@H](O)c3ccc(c(Cl)c3)Oc3cc2cc(c3O[C@@H]2O[C@H](CO)[C@@H](O)[C@H](O)[C@H]2O[C@H]2C[C@](C)(N)[C@H](O)[C@H](C)O2)Oc2ccc(cc2Cl)[C@H]1O [Vancomycin] | 2

Please examine the following record next.
Could you please provide reported MIC for C[C@H]1COc2c(N3CCN(C)CC3)c(F)cc3c(=O)c(C(=O)O)cn1c23 [Levofloxacin] ? Thanks!
32
